- method_description: Pharmacokinetics of dihydroartemisinin (DHA), active metabolite, in plasma after multiple intravenous AS doses, non-compartmental analysis
- Assay type: in vivo, human
- condition_notes: human, plasma, iv, Mean AUC of DHA, range over doses, day 1; AS 2-8 mg/kg iv

[
  {
    "compound": "C[C@H]1[C@@H](O)O[C@@H]2O[C@@]3(C)CC[C@H]4[C@H](C)CC[C@@H]1[C@@]24OO3 [DHA, dihydroartemisinin]",
    "AUC": "2120 to 9700 ng·h/mL"
  }
]

---

- method_description: Pharmacokinetics of dihydroartemisinin (DHA), active metabolite, in plasma after multiple intravenous AS doses, non-compartmental analysis
- Assay type: in vivo, human
- condition_notes: human, plasma, iv, 8 mg/kg, Day 3; DHA after AS 8 mg/kg iv daily for 3 days, 2 min infusion; mean (CV%), n = 6; NCA; read-out: t1/2 elimination (converted)
readout_kind: half-life (h)

[
  {
    "compound": "C[C@H]1[C@@H](O)O[C@@H]2O[C@@]3(C)CC[C@H]4[C@H](C)CC[C@@H]1[C@@]24OO3 [DHA, dihydroartemisinin]",
    "readout_kind": "half-life",
    "unit_label": "h",
    "numeric_readout": 1.34
  }
]

---

- method_description: Pharmacokinetics of artesunate (AS) in plasma after multiple intravenous doses, compartmental analysis (Phase 1b)
- Type: in vivo, human
- condition_notes: human, plasma, iv, 4 mg/kg, Day 2; AS 4 mg/kg iv daily for 3 days, 2 min infusion; mean (CV%), n = 6; CA; read-out: MRT
- Procedure: The study was a double blind, ascending multiple doses, alternating group, safety, tolerance, and PK study. […] When the injection was completed, the study nurse recorded tolerance of injection to include both inspection of site and subjects’ responses. […] The analytes were extracted from human plasma with ethyl acetate. […] The reconstituted extracts were analysed on a Micromass Quattro II Mass Spectrometer in the positive ion electrospray ionization (+ESI) mode. […]

[
  {
    "chemical_structure": "C[C@H]1[C@H](OC(=O)CCC(=O)O)O[C@@H]2O[C@@]3(C)CC[C@H]4[C@H](C)CC[C@@H]1[C@@]24OO3",
    "MRT / min": 4.8
  }
]

---

- method_description: Pharmacokinetics of artesunate (AS) in plasma after multiple intravenous doses, compartmental analysis (Phase 1b)
- Type: in vivo, human
- condition_notes: human, plasma, iv, 4 mg/kg, Day 2; AS 4 mg/kg iv daily for 3 days, 2 min infusion; mean (CV%), n = 6; CA; read-out: CL_obs

[
  {
    "chemical_structure": "C[C@H]1[C@H](OC(=O)CCC(=O)O)O[C@@H]2O[C@@]3(C)CC[C@H]4[C@H](C)CC[C@@H]1[C@@]24OO3",
    "unit_label": "mL/min/kg",
    "clearance": 27.3
  }
]

---

- method_description: Pharmacokinetics of artesunate (AS) in plasma after multiple intravenous doses, compartmental analysis (Phase 1b)
- Format: in vivo, human
- condition_notes: human, in vivo, iv, 4 mg/kg, Day 3; AS 4 mg/kg iv daily for 3 days, 2 min infusion; mean (CV%), n = 6; CA; read-out: t1/2 elimination (converted)
readout_kind: half-life (min)

[
  {
    "compound": "C[C@H]1[C@H](OC(=O)CCC(=O)O)O[C@@H]2O[C@@]3(C)CC[C@H]4[C@H](C)CC[C@@H]1[C@@]24OO3 [AS]",
    "numeric_readout": 12
  }
]
